Target Of Assay: Serotonin (5-HT) receptor (Rattus norvegicus) (UniProt P35563+P35365+P32305+P31388+Q9JJ16+P28564+P30994+Q62758+P08909+P14842+P30940+P35364+P19327+P28565)
Run Description: Subcutaneous dose giving half-maximal decrease of 5-HTP formation in the rat brain (striatum)
Assay type: functional, tissue-based
Measurement Kind: ED50 (µmol/kg)
Record the value in µmol/kg, omitting the unit from your answer.

Ask: // returns reported ED50 for input CCCN(CCC)C1CCc2cccc(O)c2C1 (racemic)
Reply: 0.052

Ask: // returns reported ED50 for input Oc1cccc2c1CC(N1CCCCC1)CC2 (stereo not given)
Reply: 1.1

Ask: // returns reported ED50 for input CCCN(CC)C1CCc2cccc(O)c2C1 (stereo not given)
Reply: 0.059

Ask: // returns reported ED50 for input CCCN(CCC)C1CCc2cccc(OC)c2C1 (stereo not given)
Reply: 0.29

Ask: // returns reported ED50 for input CNC1CCc2cccc(O)c2C1 (stereo not given)
Reply: 1.6
